These measurements were taken from patent US20190352423A1.

MEASURED_TARGET: T1, recombinant human CD63 second extracellular domain (Ala 103-Val 203) fused with a polyhistidine tag at the … (human, UniProt P08962 103-203)
T1 construct: range 103-203; Bought from Creative BioMart; also called human His-tagged CD63; soluble CD63
T1 sequence (looked up): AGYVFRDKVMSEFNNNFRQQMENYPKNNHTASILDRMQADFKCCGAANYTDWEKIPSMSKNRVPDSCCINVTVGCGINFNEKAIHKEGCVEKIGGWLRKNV
METHOD_NOTES: BLI (Octet HTX), IgG on anti-human Fc sensors, His-tagged CD63 as analyte, 30 C
Experimental: Association and dissociation kinetics of human His-tagged CD63 (100 nM, 50 nM, 25 nM and 12.5 nM, concentrations were calculated using the predicted molecular weight of 13 kDa) were determined in Sample Diluent (ForteBio), using an association time of 1000 s, a dissociation time of 2000 s and a shaker speed of 1000 rpm at 30° C. […]

{"BINDER": "IgG1-CD63N74H (antibody, V domains shown, also called anti-CD63-N74H) VH: EVQLQQSGPELVKPGASVKMSCKASGYTFTSYVMHWVRQTPGQGLEWIGYITPYHDGTKYNEKFKGKATLTSDKSSSTAYMELSSLTSEDSAVYYCVGGDNYYYAMDYWGQGTSVTVSA VL: NIMVTQSPSSLAVSAGEKVTMSCKSSQSVLYSSNQKNYLAWYQQKPGQSPKLLIYWASTRVSGVPDRFTGSGSGTDFTLTISRVQAEDLAVYYCHQYFSSFTFGSGTKLEIKR", "koff, s⁻¹": 0.00069}
{"BINDER": "IgG1-CD63 affinity variant G76H (antibody, V domains shown, As m1 with one histidine substitution) VH: EVQLQQSGPELVKPGASVKMSCKASGYTFTSYVMHWVRQTPGQGLEWIGYITPYNDHTKYNEKFKGKATLTSDKSSSTAYMELSSLTSEDSAVYYCVGGDNYYYAMDYWGQGTSVTVSA VL: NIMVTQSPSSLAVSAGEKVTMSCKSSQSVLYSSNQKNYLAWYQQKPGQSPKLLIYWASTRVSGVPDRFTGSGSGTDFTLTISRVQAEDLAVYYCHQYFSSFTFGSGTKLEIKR", "koff, s⁻¹": 0.00038}
{"BINDER": "IgG1-CD63 affinity variant LQ47 (antibody, V domains shown, As m1 with one histidine substitution in the light chain) VH: EVQLQQSGPELVKPGASVKMSCKASGYTFTSYVMHWVRQTPGQGLEWIGYITPYNDGTKYNEKFKGKATLTSDKSSSTAYMELSSLTSEDSAVYYCVGGDNYYYAMDYWGQGTSVTVSA VL: NIMVTQSPSSLAVSAGEKVTMSCKSSHSVLYSSNQKNYLAWYQQKPGQSPKLLIYWASTRVSGVPDRFTGSGSGTDFTLTISRVQAEDLAVYYCHQYFSSFTFGSGTKLEIKR", "koff, s⁻¹": "6.7e-05"}
